Test system: MCF7
Assay: cells
Settings: Homo sapiens, MCF7, 48 h
parameter_measured: IC50 (µM)
Dear colleague, please return just the value in µM, with no unit written.

Enter reported IC50 observed with MCF7 for "O=C(Cc1ccc(-c2ccc(OCc3ccc(Cl)cc3)nc2)cc1)N1CCC[C@H]1CO"
53.4

Then "O=C(Cc1ccc(-c2cnc(OCc3ccc(C(F)(F)F)cc3)cn2)cc1)N1CCC[C@H]1CO" ?
32.1

Cool, now "O=C(NCc1ccncc1)C12CC3CC(C1)CC(c1ccc(Cl)cc1)(C3)C2"
33.5

Now consider "NC(=O)[C@@H]1CCCN1C(=O)Cc1ccc(-c2ccc(OCc3ccc(Cl)cc3)nc2)cc1" .
25.4

Another compound to look at: "O=C(Cc1ccc(-c2ccc(OCc3ccc(Cl)c(Cl)c3)nc2)cc1)N1CCC(O)CC1"
36.3

Try the compound "NC(=O)[C@@H]1CCCN1C(=O)Cc1ccc(-c2ccc(OCc3ccc(Cl)c(Cl)c3)nc2)cc1"
32.7

Another compound to check: "O=C(Cc1ccc(-c2ccc(OCc3ccc(Cl)c(Cl)c3)nc2)cc1)N1CCC[C@H]1CO"
14.7

----------
Biological target: Sphingosine kinase 2 (Homo sapiens, UniProt Q9NRA0)
Sequence (Q9NRA0 whole entry): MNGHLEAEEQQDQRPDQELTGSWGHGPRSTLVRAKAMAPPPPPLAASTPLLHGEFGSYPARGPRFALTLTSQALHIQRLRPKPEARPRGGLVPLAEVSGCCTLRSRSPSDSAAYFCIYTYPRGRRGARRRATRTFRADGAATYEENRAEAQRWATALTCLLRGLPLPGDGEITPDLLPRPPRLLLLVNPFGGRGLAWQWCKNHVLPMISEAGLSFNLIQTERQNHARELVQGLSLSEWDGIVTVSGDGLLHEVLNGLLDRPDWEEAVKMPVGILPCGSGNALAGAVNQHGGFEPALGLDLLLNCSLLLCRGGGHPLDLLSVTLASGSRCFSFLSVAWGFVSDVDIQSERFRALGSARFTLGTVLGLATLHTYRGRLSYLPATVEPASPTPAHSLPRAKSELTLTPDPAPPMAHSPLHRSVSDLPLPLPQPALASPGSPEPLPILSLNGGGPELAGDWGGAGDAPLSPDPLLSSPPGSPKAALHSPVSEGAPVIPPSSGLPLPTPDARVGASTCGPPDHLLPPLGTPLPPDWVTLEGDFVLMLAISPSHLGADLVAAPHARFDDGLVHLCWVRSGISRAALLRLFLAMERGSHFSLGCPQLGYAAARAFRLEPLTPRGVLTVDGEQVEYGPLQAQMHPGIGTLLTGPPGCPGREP
Test: Inhibition of SphK2 (unknown origin) using sphingosine as substrate incubated for 30 mins in presence of ATP by ADP-Glo assay
For each entry below, report its IC50 value.
Quick reminder: number only, in µM, skip the unit.

Query for Sphingosine kinase 2 (Homo sapiens, UniProt Q9NRA0): what IC50 does the record show for "O=C(NCc1ccncc1)C12CC3CC(C1)CC(c1ccc(Cl)cc1)(C3)C2" ?
11.4

Also need "CCCCCOc1ccc2cc(-c3noc([C@@H]4[C@@H](O)CCN4C(=N)N)n3)ccc2c1" , thanks.
1.5

Ref: ChEMBL document CHEMBL6127008
